# test_protocol: in vitro
# applied_conditions: African green monkey, Infectious EBOV CC50 (μM)
Each item that follows carries a reported CC50.
Number in µM, nothing else.

compound	parameter	meas_value
COc1ccc(OC)c(NC(=O)CC(c2ccc(OC)cc2OC)S(=O)(=O)c2ccccc2)c1 (centres unmarked) [I]	CC50	40

Let us examine a further case.
Entry CCOc1ccc(NC(=O)CSc2nnc(COc3cccc(N(C)C)c3)n2-c2ccccc2)cc1 [K] : reported CC50 = ?
50

* * *

# System: HIV/EBOV-GP pseudotype virus
# test_protocol: microbe, parasite or virus in culture
# Type: cell-based, EBOV Zaire strain
# applied_conditions: Human immunodeficiency virus 1, HEK-293T, read-out: antiviral potency, first value column of Table 7 (head only in drawing)
parameter: pIC50
On this scale, pIC50 is minus log10 of a concentration expressed in M (mol/L).

Entry CCOc1ccc(NC(=O)CSc2nnc(COc3cccc(N(C)C)c3)n2-c2ccccc2)cc1 : reported pIC50 = ?
5.60

* * *

# Test system: 293T cells
parameter: CC50 (µM)
Number in µM, nothing else.

Entry FC(F)C(F)(F)C1=Nc2ccccc2N=C(c2ccccc2)C1 : reported CC50 = ?
75

The measurements presented in this section are drawn from patent US9101635B2.
